// data source = patent US20100152141A1

# tested_on: 5-HT6 receptor (Homo sapiens)
# Sequence (P50406 whole entry): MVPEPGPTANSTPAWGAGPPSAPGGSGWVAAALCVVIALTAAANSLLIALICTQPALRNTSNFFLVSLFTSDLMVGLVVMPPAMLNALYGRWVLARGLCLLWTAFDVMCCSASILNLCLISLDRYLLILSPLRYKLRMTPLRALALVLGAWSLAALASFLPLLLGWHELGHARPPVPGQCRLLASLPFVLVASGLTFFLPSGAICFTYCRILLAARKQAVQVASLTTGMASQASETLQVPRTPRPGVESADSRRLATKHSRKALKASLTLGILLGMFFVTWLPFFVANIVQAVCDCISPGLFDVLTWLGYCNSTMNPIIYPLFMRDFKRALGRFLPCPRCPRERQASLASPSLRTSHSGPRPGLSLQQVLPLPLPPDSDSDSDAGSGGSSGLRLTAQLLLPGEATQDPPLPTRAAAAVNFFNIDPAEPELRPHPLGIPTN
result_type: pKi
Please report pKi as the negative decimal logarithm of the molar concentration, giving only the number.

Provide value of pKi for this record tested with 5-HT6 receptor (Homo sapiens): COc1cc(Cl)cc(C(C)Nc2cc(N3CCNCC3)ccc2S(C)(=O)=O)c1OC.Cl (stereo not shown) [Compound A, hydrochloride]
8.40
